Source: patent US20240116985A1

Target: T1, B-cat-Halo (UniProt P35222 1-781, HaloTag NanoBRET 618 Ligand bound in the assay)
T1 sequence (looked up): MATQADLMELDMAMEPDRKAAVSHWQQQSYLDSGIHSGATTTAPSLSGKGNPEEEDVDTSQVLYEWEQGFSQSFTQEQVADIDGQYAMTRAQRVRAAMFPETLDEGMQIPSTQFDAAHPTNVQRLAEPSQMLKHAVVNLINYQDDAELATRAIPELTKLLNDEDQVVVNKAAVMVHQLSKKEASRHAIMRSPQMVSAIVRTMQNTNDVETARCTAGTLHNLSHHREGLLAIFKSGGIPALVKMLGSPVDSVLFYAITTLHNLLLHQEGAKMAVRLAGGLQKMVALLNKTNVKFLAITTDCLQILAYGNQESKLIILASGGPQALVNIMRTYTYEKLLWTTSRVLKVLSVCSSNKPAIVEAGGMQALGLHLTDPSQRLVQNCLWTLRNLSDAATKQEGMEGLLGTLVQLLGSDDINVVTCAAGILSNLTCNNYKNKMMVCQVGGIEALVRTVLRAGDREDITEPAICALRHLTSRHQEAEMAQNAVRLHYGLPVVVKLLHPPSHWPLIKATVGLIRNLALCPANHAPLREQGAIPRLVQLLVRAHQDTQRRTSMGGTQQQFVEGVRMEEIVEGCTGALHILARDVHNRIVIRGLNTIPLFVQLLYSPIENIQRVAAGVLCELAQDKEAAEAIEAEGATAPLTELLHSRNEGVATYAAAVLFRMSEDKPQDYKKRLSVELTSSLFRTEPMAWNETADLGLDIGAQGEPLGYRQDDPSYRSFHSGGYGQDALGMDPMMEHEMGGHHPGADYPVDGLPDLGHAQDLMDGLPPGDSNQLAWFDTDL
Assay: cell-based or functional assay
Starred links: 1 amine or outer side, 2 acyl side, 3 side chain; linkers in the order of their positions; H or OH if unused. Positions of bridges follow the written chain, without caps; N, C: chain ends. Non-standard residues stand in square brackets, D forms with d. Primed or numbered codes have the meaning given here. PyrS2″ = (S)-3-amino-1-((pent-4-en-1-yloxy)carbonyl)pyrrolidine-3-carboxylic acid (stapling residue), C=CCCCOC(=O)N1CC[C@@](N[*:1])(C(=O)[*:2])C1; B5(4) = 2,2-bis(4-pentenyl)glycine = 2-amino-2-(pent-4-en-1-yl)hept-6-enoic acid (stitching residue), C=CCCCC(CCCC=C)(N[*:1])C(=O)[*:2]; Phe(3-COOH) = N[C@@H](Cc1cccc(C(=O)O)c1)C(=O)O; Phe(2-CF3) = N[C@@H](Cc1ccccc1C(F)(F)F)C(=O)O; Bta = N[C@@H](Cc1csc2ccccc12)C(=O)O; αAllylPro = C=CC[C@@]1(C(=O)O)CCCN1; tBuAla = CC(C)(C)C[C@H](N)C(=O)O; Nle = CCCC[C@H](N)C(=O)O

# binder, reading.unit, NanoBRET Abs IC50
rows = [
    ("Ac-[αAllylPro]D[tBuAla][B5(4)]D[Phe(3-COOH)]AAF[MorphGln][PyrS2″][Phe(2-CF3)][Bta][Me2Gln]-NH2 (staple 1-4, 4-11; not fully specified; printed as Ac-PL3-Asp-Npg-B5-Asp-3COOHF-Ala-Ala-Phe-MorphGln-PyrS2-2F3MeF-BztA-Me2Gln-NH2) [I-2538]", "µM", 3.5),
    ("Ac-[αAllylPro]D[tBuAla][B5(4)]D[Phe(3-COOH)]AAF[Nle][PyrS2″][Phe(2-CF3)][Bta][MorphGln]-NH2 (staple 1-4, 4-11) [I-2542]", "µM", 4),
]
